Hello, the source for this data is paper PMC9332313, in case you need it.

biological target: T1, SH2 domain of Crkl protein (residues 1-111), wild type (UniProt P46109 1-111); test: stopped-flow fluorescence kinetics (FRET); dansyl-Pax112-123 constant at 2 μM mixed with Crkl-SH2 2 to 10 μM (pseudo-first-order, kon); koff by displacement of the preincubated 2 µM complex with excess non-dansylated Pax112-123 (30 μM); 283 K; 50 mM TrisHCl pH 8.0, 0.5 M NaCl; conditions: both partners purified
T1 construct: Crkl adaptor protein, SH2 domain, residues 1-111; Subcloned in pET28b+; all experiments were done on the N-terminally His-tagged protein; also called Crkl-SH2; Crkl SH2 domain; source: E. coli BL21 (DE3), purified (HisTrap nickel column, desalting); not shown: His tag, N-terminal, kept
T1 sequence (P46109 1-111): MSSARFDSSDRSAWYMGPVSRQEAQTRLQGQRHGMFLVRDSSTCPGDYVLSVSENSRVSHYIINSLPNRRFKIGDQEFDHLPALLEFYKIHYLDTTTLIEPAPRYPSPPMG
Square brackets hold non-standard residues; d marks the D form. Ends that are not written are not given here. * marks the point of attachment. pY = N[C@@H](Cc1ccc(OP(=O)(O)O)cc1)C(=O)O; Dansyl = CN(C)c1cccc2c(S(=O)(=O)*)cccc12

Binder | Kd
Dansyl-GEEEHV[pY]SFPNK (The dansyl group is the FRET acceptor of Trp14 of the SH2 domain; source: synthetic peptide, bought: GenScript) [dansylated Pax_(112–123) peptide (Dans-GEEEHV-pY-SFPNK)] | 3.1 µM
